# experimentSummary: Acute toxicity in ip dosed rat
# Type: organism-based
# measurementConditions: in vivo
measuredMetric: LD50
Answer with the value and then the unit.

Per the records, this molecule ( `[O-][n+]1ccc(O)c(O)c1-c1c(O)c(O)cc[n+]1[O-]` ) has LD50 equal to 5 mg/kg

---

# experimentSummary: Acute toxicity in po dosed mouse
# Assay type: organism-based
# measurementConditions: in vivo
measuredMetric: LD50 (mg/kg)
Value expressed in mg/kg; do not type the unit.

Per the records, this compound ( [O-][n+]1ccc(O)c(O)c1-c1c(O)c(O)cc[n+]1[O-] [ORELLANINE] ) has LD50 equal to 12

Sourced from ChEMBL document CHEMBL2151028
